Below, each of the binders is paired with its reported GLP-1 EC50 value.
biological target: GLP-1 receptor (UniProt P43220 24-463, limits assumed); assay: cell-based or functional assay
Positions of bridges follow the written chain, without caps; N, C: chain ends. Non-standard residues stand in square brackets, D forms with d. No end group written: not given here. PhLac = O=C(O)[C@@H](O)Cc1ccccc1
PROPERTY LABEL: GLP-1 EC50 (nM)

• [PhLac]TSDYSKYLDERRAKDFVEWLMDT (lactam 15-19) [[PLA6, D9, E16, K20E24(Lactam), D28]G(6-29) (Table 2 peptide 3)] = 239
• HSQGTFTSDYARYLDARRAREFIKWLVRGRG [ANK2 (Bayer peptide) (Table 2 peptide 9)] = 0.28
• [PhLac]TSDYSKYLDERRAQDFVEWLMKT (lactam 19-23) [[PLA6, D9, E16, E24K28(lactam)]G(6~29) (Table 2 peptide 4)] = 289
• [PhLac]TSDYSKYLDERRAQDFVQWLMDT (lactam 7-11; not fully specified) [[PLA6, D9, K12E16(Lactam), D28]G(6-29) (Table 2 peptide 2)] = 177
